Quick list: inhibition at 1 µM per entry.
Target or system: UniProt Q14524
Sequence (Q14524 whole entry): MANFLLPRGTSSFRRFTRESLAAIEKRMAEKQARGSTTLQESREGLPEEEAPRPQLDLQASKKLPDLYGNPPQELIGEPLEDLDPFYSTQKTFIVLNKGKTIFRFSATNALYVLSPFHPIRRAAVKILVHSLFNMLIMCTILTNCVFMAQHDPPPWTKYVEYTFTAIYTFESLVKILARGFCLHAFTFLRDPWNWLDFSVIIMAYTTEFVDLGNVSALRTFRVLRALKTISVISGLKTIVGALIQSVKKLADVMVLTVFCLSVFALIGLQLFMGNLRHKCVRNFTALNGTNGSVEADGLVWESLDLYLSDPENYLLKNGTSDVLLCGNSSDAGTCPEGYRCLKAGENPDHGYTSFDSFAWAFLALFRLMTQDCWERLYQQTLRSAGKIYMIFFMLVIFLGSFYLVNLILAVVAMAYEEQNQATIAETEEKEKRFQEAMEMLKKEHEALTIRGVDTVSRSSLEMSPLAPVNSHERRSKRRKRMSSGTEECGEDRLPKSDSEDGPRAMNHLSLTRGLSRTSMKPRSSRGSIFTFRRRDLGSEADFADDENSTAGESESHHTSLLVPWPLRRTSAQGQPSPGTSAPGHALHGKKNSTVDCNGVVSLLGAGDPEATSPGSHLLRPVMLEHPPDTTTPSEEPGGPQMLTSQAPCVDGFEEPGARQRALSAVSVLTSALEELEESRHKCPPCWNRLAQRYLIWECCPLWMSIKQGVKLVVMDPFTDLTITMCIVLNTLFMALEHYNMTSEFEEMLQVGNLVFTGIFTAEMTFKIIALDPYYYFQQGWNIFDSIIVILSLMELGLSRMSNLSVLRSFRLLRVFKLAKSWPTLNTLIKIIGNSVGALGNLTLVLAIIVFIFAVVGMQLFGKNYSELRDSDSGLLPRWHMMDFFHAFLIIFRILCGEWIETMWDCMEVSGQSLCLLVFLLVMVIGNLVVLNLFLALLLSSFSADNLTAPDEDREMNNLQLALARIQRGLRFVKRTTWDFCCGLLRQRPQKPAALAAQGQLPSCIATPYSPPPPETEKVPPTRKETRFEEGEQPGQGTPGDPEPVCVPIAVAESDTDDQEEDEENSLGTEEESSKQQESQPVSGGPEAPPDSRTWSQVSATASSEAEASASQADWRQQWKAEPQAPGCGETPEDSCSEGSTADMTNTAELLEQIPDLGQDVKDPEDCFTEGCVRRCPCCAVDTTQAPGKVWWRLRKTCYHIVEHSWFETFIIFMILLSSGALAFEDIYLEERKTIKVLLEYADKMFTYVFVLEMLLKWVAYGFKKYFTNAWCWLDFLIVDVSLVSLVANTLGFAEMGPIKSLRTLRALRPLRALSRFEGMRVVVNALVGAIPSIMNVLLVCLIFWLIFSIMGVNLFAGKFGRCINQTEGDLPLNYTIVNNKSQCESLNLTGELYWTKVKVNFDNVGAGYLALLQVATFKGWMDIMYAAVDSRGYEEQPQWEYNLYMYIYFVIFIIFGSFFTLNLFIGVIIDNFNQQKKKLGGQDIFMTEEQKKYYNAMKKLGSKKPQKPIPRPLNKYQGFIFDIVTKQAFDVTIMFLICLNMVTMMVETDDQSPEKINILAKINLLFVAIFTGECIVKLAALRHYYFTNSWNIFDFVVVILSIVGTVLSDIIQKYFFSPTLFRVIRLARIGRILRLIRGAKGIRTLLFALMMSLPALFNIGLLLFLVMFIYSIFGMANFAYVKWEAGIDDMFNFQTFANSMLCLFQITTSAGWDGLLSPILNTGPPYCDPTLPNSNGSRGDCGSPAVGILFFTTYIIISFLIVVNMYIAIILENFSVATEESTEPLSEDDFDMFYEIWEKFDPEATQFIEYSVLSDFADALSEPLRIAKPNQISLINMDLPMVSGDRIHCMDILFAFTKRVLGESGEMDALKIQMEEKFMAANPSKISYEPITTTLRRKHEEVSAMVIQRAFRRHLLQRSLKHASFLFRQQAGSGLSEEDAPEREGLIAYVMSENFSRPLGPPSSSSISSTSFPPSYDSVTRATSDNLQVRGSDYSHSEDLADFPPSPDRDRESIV
Assay overview: Late INa screening assay (QPatch whole cell patch clamp, tefluthrin-enhanced late sodium current)
Type: cell-based
Experimental setup: HEK293 hNav1.5, late INa activated with 10 μM Tefluthrin
Description: The late sodium current (Late INa) and peak sodium current (Peak INa) assays are performed on an automated electrophysiology platform, QPatch 16X (Sophion Bioscience, Copenhagen, Denmark), which uses the whole cell patch clamp technique to measure currents through the cell membrane of up to 16 cells at a time. The assay uses an HEK293 (human embryonic kidney) cell line heterologously expressing the wild-type human cardiac sodium channel, hNav1.5, purchased from Millipore (Billerica, Mass.). […]
Endpoint label: inhibition at 1 µM (%)

compound="NC1CN(C2=NCCOc3ccc(-c4ccc(C(F)(F)F)cc4)cc32)C1 [II-18]" target_or_system="UniProt Q14524" measurement_unit=% recorded_measurement=9
compound="FC(F)(F)c1ccc(-c2ccc3c(c2)C(NC2CC2)=NCCO3)cc1 [II-4]" target_or_system="UniProt Q14524" measurement_unit=% recorded_measurement=25
compound="OC(CN[C@@H]1CCN(C2=NCCOc3ccc(-c4ccc(C(F)(F)F)cc4)cc32)C1)COc1cccc2ccccc12 (some centres unmarked) [II-61]" target_or_system="UniProt Q14524" measurement_unit=% recorded_measurement=12
compound="Fc1cccnc1CNC1=NCCOc2ccc(-c3ccc(C(F)(F)F)cc3)cc21 [II-9]" target_or_system="UniProt Q14524" measurement_unit=% recorded_measurement=23
compound="FC(F)(F)c1ccc(-c2ccc3c(c2)C(N2CCC(N4CCOCC4)C2)=NCCO3)cc1 (centres unmarked) [II-55]" target_or_system="UniProt Q14524" measurement_unit=% recorded_measurement=18
compound="CN(C)[C@@H]1CCN(C2=NCCOc3ccc(-c4ccc(C(F)(F)F)cc4)cc32)C1 [II-51]" target_or_system="UniProt Q14524" measurement_unit=% recorded_measurement=21
compound="Cc1c(Cl)nc2n1CCOc1ccc(-c3ccc(C(F)(F)F)cc3)cc1-2 [Compound I-14]" target_or_system="UniProt Q14524" measurement_unit=% recorded_measurement=11
compound="CN(C)[C@H]1CCN(C2=NCCOc3ccc(-c4ccc(C(F)(F)F)cc4)cc32)C1 [II-15]" target_or_system="UniProt Q14524" measurement_unit=% recorded_measurement=49
compound="FC1(F)CCN(C2=NCCOc3ccc(-c4ccc(C(F)(F)F)cc4)cc32)C1 [II-6]" target_or_system="UniProt Q14524" measurement_unit=% recorded_measurement=7
compound="O=C(N[C@H]1CCN(C2=NCCOc3ccc(-c4ccc(C(F)(F)F)cc4)cc32)C1)c1ncccn1 [II-45]" target_or_system="UniProt Q14524" measurement_unit=% recorded_measurement=6
compound="CC(C)(C)OC(=O)NC1CCN(C2=NCCOc3ccc(-c4ccc(C(F)(F)F)cc4)cc32)C1 (centres unmarked) [II-57]" target_or_system="UniProt Q14524" measurement_unit=% recorded_measurement=23

Values compiled from patent US9695192B2.
